Measured values drawn from patent US20180334496A1 for this set.

molecular target: T1, human Complement Factor D (CFD), purified from human serum (human, UniProt P00746 26-253); test: SPR MX96, mAbs amine-coupled, CFD injected
T1 construct: serum purified (CompTech A136); also called serum purified CFD; hCFD-Comptech
T1 sequence (P00746 26-253): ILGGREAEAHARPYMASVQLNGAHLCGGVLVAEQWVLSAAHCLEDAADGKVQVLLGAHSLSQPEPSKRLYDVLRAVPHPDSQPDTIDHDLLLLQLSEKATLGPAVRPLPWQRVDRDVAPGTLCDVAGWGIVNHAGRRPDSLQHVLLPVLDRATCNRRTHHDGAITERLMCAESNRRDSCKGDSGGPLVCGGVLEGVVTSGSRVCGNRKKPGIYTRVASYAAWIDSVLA
Examples of binders with documented Kd follow.
Expressed in nM, but write only the number.

Completed entries (count: 2):
[
  {
    "Binder": "KCD030 (antibody, V domains shown) VH: QVQLQQSGAELAKPGASVKMSCKASGYTFTNYWMHWVKQRPGQGLEWIGYINPSIGYTEYNQKFKDKATLTADKSSSTAYMQLSSLTSEDSAVFYCATFIYYAMDYWGQGTSVTVSS VL: DIQMNQSPSSLSASLGDTITITCHASQNINVWLSWYQQKPGNIPKLLIYKASNLHTGVPSRFSGSGSGTGFTLTISSLQPEDIATYYCQQGQSYPYTFGGGTKLEIK",
    "Metric Name": "Kd",
    "Test Value": 4.17
  },
  {
    "Binder": "KCD018 (antibody, V domains shown) VH: QVQLQQSAAELARPGASVKMSCKASGYTFTSYTVHWVKQRPGQGLEWIGYINPSSGFTDYNQKFKDKTTLTADISSSTAYIQLSSLTSEDSAVYYCARRGVNWSWFAYWGQGTLVTVSA VL: NIMMTQSPSSLAVSAGEKVTMSCKSSQSVLYSSNQKNYLAWYQQKPGQSPQLLIYWASTRESGVPERFTGSGSGTDFTLTISSVQAEDLAVYYCHQYLSSWTFGGGTKLEIK",
    "Metric Name": "Kd",
    "Test Value": 40.8
  }
]

Turning now to a further binder:
Query block: Dear colleague, please send me the reported Kd for KCD063 (antibody, V domains shown) VH: EVKLVESGGGLVQPGGSLKLSCAASGFIFSSYIMSWVRQTPEKRLEWVAYITNGGGSTYYPDTVKGRLTISRDNAKNTLYLQMSSLKSEDTAMYYCVRHAHYYAMDYWGQGTSVTVSS VL: DIQMTQSPSSLSASLGGKVTITCKASQDINKYITWYQHKPGKGPRLLIHYTSTLQPGIPSRFSGSGSGRDYSFSISNLEPEDIATYYCLQYDNLLYTFGGGTKLEIK when you can.
Result block: 33.3
